Test: yeast display, Sf9 membrane polyspecificity reagent, FACS + sequencing; frameworks hold sequencing errors
parameter: polyreactivity (PSR sort gate)

Examples with their reported polyreactivity (PSR sort gate) follow.
| sequenceCode | measuredResult |
| --- | --- |
| QVQLVESGGGLVQAGGSLRLSCAASGISFYVNAMGSYRQAPGKERELVVAITQSVDITSYADSVKGRFTISRDNEKNTVYLQMNSLKPEVTAVYYCATRVIQDDNARDYWGQGTQVTVSS | low polyreactivity |
| QVQLVESVGGLVQAGGSLRLSCAASGFTFTPYGMGWYRQAPGKERELVAAITWNGGRTYYADSVKGRFTISRDNAKNTVYLQMNSLKPEDTAVYYCAAVAWSWQKRGYWGQGTQVTVSS | high polyreactivity |
| QVQLVESGGGLVQAGGSLRLSCAASGSIFAINAMGWDRQAPGKERELVAAITRGGSTYADSVKGRFTISRDNAKNTVYLQINSLKPEDTAVYYCAARWYRRGNGFNYWGQCTQVTVSS | high polyreactivity |
| QVQLVESGGGLDQAGGSLRLSCAASGRIFNKYAMGWYRQAPGKERELVAAITRSGTRTFYADSVKGRFTISRDNAKNTVYLQMNSLKPEDTAVYYCNRDQYPFTKMDYWGQGTQVTVSS | high polyreactivity |
| QVQLVESGGGLVQAGGSLRLSCAASGSIFVGYAMGWYRQAPGKERELVAAISKSGGSTYYADSVKGRFTISRDNAKNTDYLQMNSLKPEDTAVYYCATRTHRRGNYLSITHEYWGQGTQVTVSS | high polyreactivity |

Dear colleague, I am looking for the recorded polyreactivity (PSR sort gate) of the following sequence: QVQLVESGGGLVQAGGSLRLSCAASGLTFGYYAMGWYRQAPGKEREFVASITWSGGTTYYADSVKGRFTISRDNAKNTVYLQMNSLKPEDTAVYYCAAQRSYAYEYWGQGTQVTVSS
high polyreactivity

Continue with QVQLEESGGGLVQAGGSLSLSCAASGSNFVYNAMGWYRQAPGKERELVAVINSGGSTNYADSVKGRFTISRDNAKNTVYIQKNSRKPEDTAVYYCAADRLAVHYYSWYNYWGQGTQVTVSS
low polyreactivity

Also need QVQLVESGGGLVQAGGSLRLSCAASGSIFLVYAMGWYRQAPGKERELVAAISRSGRTYADSVKGRFTISRDNAKNTVYLQMNSLKPEDTAVYYCAAGTKRRFEGDYWGQGTQVTVSS , thanks.
high polyreactivity

And then QVQLVESGGGLVQAGGSLRLSCAASGSIFGPNAMGWYRQAPGKERELVAAITNGGRTNYADSVKGRFTISRDNAKNTVYLQMNSLKPEDTAVYYCNKARYGTDDYDYWGQGTQVTVSS , what is it?
low polyreactivity

Also QVQHVESGGGLVQAGGSLRLSCAASGRIFDTYTMGWYRAAPGKVRELVAAITSGGSTYYADSVKGRFTISRDNATNTVYLQMNSLKPEDTAVYYCAARYRSIIRYYYWGQGTQVTVSS , if possible.
high polyreactivity

Try QFQLVESGGGLVQAGGSLRLSCAASGSIFLWYAMGWYRQAPGKERELVAVITSSGGTTYYADSVKGRFTISRDNAKNTVYLQMNCMKPEDNAVYYSAADFYRHPPGSLTKLYYYWGQGTQVTVSS next.
low polyreactivity

Another: QVQLVESGGGLVQAGGSLRLSCAASGFTFYGNAMGWYRQAPGKERELVASISTYYADSVKGRFTISRDNAKNTVYLQMNSLKPEDTAVYYCAATHYDRTYYVIYDYWGQGTQVTVST
low polyreactivity

Quick one: QVQLVESGGGLVQAGGSLRLSCAASGGIFTYYAMGGYRQAPGKERELVAAITWSGGSTYYADSVKGRFTISRDNAKNTVYLQMNSLKPEETAVYYCNAVVLHVTTDNSTFTTDDYWGHGTQVTVSS
low polyreactivity

How about QVQLVESGGGLVQAGGSLRISCAASGFTFRSYAMGWYRQAPGKERELVAAISWRGGRTYYADSVKGRFTISRDNAKNTVYLQMNSLKPLDTAVYYCATDWYWGSYAPYTTRAHFDYWGQGTQVTVSS ?
high polyreactivity

# repeat for QVQLVESGGGLVQAGGSLRLSCAASGNTFVQNTMGWYRPATGKETELVAAISTRGGSTYYADSLKGRFTISRDNAKNTVYLQMNSLKPVDTAVYYCAARSKVRRSYDYWGQGTQVTVSS
high polyreactivity

Now try QVQLVESGAGIVQAGGSLRLSCAASGIIFNLYAMGWYRQAPGKERELVASISIGGSTNYADSVKGRFTISRDNAKNTVYLQMNSLKPEDTAVYYCAAALYEATYDANGLDMDYWGQGTQVTVSS .
high polyreactivity

Now the sequence QVQLVESGGGLVHAGGSLRLSCAASGSTFNYYAMGWYRQAPGKERELVAAIDWSGGSTYYADSVKGRFTISRDNAKNTVYLQMNSLKPEDTAVYYCAARTYDYSYRSYDYWGQGTQVTVSS
low polyreactivity

Now give it for HVQLVESGGGLVQAGGSLRLSCAASGRTFVVYAMGWDRQAPGKERELVAAITSSGGSTYYADSVKGRFTISRDNAKNTVYLQMNSLKPEDTAVYYCNRVYVRAGVSVAYNYWGQGTQVTVSS too.
high polyreactivity

Now the sequence QVQLVESGGGLVQAGGRLRLSCAASGFTFKRNAMGWYRQAPGKERELVAAITWSGGSTYYADSVKGRFTISRDNAKNTVYLQMNSLKPEDTAVYYCAALYRSRYYAGDYLGQGTQVTVSS
high polyreactivity

One more sequence: QVQLVESGGRLVQAGGSLRISCAASGNTFVRYAMGWYRQAPGKQSELVASISTSGGSTYYADSVKGRFTISRDNAKNTVYLQMNSLKPQDTAVYYCAARLPRTRYWEDFWGQGTQVSVSS
high polyreactivity

Another sequence to look at: QVQLVESGGGLVQAGGSLRLSCAASGRTIAAYAMGWYRQAPGKERELVAAISRSGGSTYYADSVKGRFTISRDNAKNTVYLQMNSLKPEDTAVYYCAAQRQYGKFDYWGQGTQVTVSS
high polyreactivity
